// provenance: ChEMBL document CHEMBL4689842

system: U2OS; test: Multiplex assay against U2OS; assay type: toxicity, cell-based; settings: human, 48 h, 1 µM, compound concentration 1 uM, replicate 1
Population Mitotic Cells (%) below 30% gives false (0); Population Mitotic Cells (%) at or above it gives true (1).

Past entries and their recorded results:
CC(C)c1cc(Nc2nc(N3CCC[C@H](N)C3)ncc2C(N)=O)cc(C(C)C)n1    true (1)
CCCc1cc(C)[nH]c(=O)c1CNC(=O)c1cc(-c2ccc(N3CCN(C(C)C)CC3)nc2)cc2c1cnn2C(C)C    false (0)
CCCCCNC(=N)N/N=C/c1c[nH]c2ccc(OC)cc12.O=C(O)/C=C\C(=O)O [TEGASEROD MALEATE]    true (1)
N#CCNC(=O)c1ccc(-c2ccnc(Nc3ccc(N4CCOCC4)cc3)n2)cc1 [MOMELOTINIB]    true (1)
C[C@@H](Oc1cc(-n2cnc3ccc(CN4CCN(C)CC4)cc32)sc1C(N)=O)c1ccccc1C(F)(F)F [GSK-461364]    false (0)

Now look at this entry.
In plain terms: is recorded Population Mitotic Cells (%) at least 30% for Oc1cccc(-c2nc(N3CCOCC3)c3oc4ncccc4c3n2)c1 [PI-103] ?
false (0)
